Let's go through some recorded pIC50 values for PTRGER4 (EP4) (Homo sapiens) together.
Hey, just a heads up that pIC50 is the negative log base 10 of the concentration in molar.

compound_smiles | pIC50
CCCOc1cc(Br)ccc1CCNc1cc(-c2cc(OCC)c(-c3noc(=O)[nH]3)s2)ncn1 | 8.52

(Q) Give recorded pIC50 with PTRGER4 (EP4) (Homo sapiens) for the following compound: `CCOc1cc(-c2cc(NCCc3c(F)cc(Br)cc3F)ncn2)ccc1CC(=O)O`
(A) 6.84

(Q) Now consider `CCOc1cc(-c2cc(NCCc3c(F)ccc(Cl)c3F)ncn2)sc1-c1noc(=O)[nH]1` and answer again.
(A) 7.85

(Q) Now consider `CCCOc1cc(-c2cc(NCCc3c(C)cc(C)cc3OC)ncn2)ccc1CC(=O)O` and answer again.
(A) 6.16

(Q) Now consider `O=C(O)Cc1ccc(-c2cc(NCCc3c(F)cc(Br)cc3F)ncn2)cc1OC(F)(F)F` and answer again.
(A) 6.45

---

Let's go through some recorded IC50 values for PTGER2 (EP2) (Homo sapiens) together.
Express your answer in nM, writing the number without its unit.

compound | measured_on | uom | IC50
CCOc1cc(-c2cc(NCCc3c(F)cc(Br)cc3F)ncn2)ccc1C(=O)NCC(C)(C)O [Example 302] | PTGER2 (EP2) (Homo sapiens) | nM | 121
CN1C(=O)NCc2ccc(-c3cc(NCCc4c(F)cc(Br)cc4F)ncn3)cc21 [Example 262] | PTGER2 (EP2) (Homo sapiens) | nM | 88
CCOc1cc(-c2cc(NCCc3ccc(Cl)c(Cl)c3)ncn2)sc1-c1noc(=O)[nH]1 [Example 121] | PTGER2 (EP2) (Homo sapiens) | nM | 66

(Q) State the recorded IC50 for this entry: CCOc1cc(-c2cc(NCCc3c(F)cc(Br)cc3F)ncn2)ccc1NCC(=O)O [Example 182]
(A) 163

---

- measured_on: EP2 (Homo sapiens, UniProt P43116)
- Sequence (P43116 whole entry): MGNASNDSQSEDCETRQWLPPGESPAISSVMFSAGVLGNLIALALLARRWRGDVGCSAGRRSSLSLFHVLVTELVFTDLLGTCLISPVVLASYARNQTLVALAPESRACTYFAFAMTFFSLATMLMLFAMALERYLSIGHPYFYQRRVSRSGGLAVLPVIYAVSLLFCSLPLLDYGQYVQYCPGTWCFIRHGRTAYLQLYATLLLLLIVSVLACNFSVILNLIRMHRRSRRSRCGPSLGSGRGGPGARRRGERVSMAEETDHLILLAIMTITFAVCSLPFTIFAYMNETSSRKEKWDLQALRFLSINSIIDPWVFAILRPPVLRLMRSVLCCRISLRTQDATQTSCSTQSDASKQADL
pIC50: −log10 of the molar value.
Note to self: values exactly at 7 are Y. So pIC50 at or above 7 is Y, below is N.

Recorded results for 2 compounds are shown here.
compound_smiles | group_label
CCOc1cc(-c2cc(NCCc3cccc(Cl)c3)ncn2)sc1C(=O)O | N
COc1cc(-c2noc(=O)[nH]2)ccc1-c1cc(NCCc2c(F)cc(Br)cc2F)ncn1 | N

Here's the next entry for you.
(Q) Quick check, pIC50 >= 7? `CCOc1nc(-c2cc(NCCc3c(F)cc(Br)cc3F)ncn2)sc1C(=O)O`
(A) Y

---

Let's go through some recorded IC50 values for EP2 (Homo sapiens, UniProt P43116) together.
Express your answer in nM, writing the number without its unit.

compound_smiles | IC50, nM
CCOc1cc(-c2cc(NCCc3ccc(Br)c(C)c3)ncn2)sc1-c1noc(=O)[nH]1 | 113

(Q) State the recorded IC50 for this entry: `CCOc1cc(-c2cc(NCCc3ccc(Br)c(OC)c3)ncn2)sc1-c1noc(=O)[nH]1`
(A) 51

(Q) Now consider `CCOc1cc(-c2cc(NCCc3ccccc3Br)ncn2)sc1C(=O)O` and answer again.
(A) 139

---

- measured_on: EP4 (Homo sapiens)
- Sequence (P35408 whole entry): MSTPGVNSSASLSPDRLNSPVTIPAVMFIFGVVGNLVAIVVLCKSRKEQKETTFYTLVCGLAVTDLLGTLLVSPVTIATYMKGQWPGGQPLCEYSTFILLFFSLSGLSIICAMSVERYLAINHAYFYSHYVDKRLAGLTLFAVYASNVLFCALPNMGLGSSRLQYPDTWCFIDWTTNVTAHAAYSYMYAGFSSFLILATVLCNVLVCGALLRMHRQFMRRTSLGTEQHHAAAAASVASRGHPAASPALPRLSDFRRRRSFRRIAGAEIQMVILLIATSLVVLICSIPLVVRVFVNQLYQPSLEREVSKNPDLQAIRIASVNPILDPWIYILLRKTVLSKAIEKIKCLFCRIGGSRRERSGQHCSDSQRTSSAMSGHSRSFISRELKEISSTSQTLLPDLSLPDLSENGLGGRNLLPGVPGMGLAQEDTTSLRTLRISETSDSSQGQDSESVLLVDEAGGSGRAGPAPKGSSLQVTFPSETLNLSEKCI
In plain terms, low IC50, meaning strictly below 100 nM, gives satisfied, and everything else gives not satisfied.

Recorded results for 5 compounds are shown here.
compound_smiles | measured_on | group_label
Cn1[nH]c(=O)c2ccc(-c3cc(NCCc4ccc(Br)cc4)ncn3)cc21 | EP4 (Homo sapiens) | not satisfied
NC(=O)Cc1ccc(-c2cc(NCCc3ccc(Br)cc3)ncn2)s1 | EP4 (Homo sapiens) | not satisfied
COc1cccc(CCNc2cc(-c3cc(C(F)(F)F)c(C(=O)O)s3)ncn2)c1 | EP4 (Homo sapiens) | not satisfied
CCOc1cc(-c2cc(NCCc3c(F)cc(Br)cc3F)ncn2)[nH]c1C(=O)O | EP4 (Homo sapiens) | not satisfied
CC(C)Cc1cc(-c2cc(NCCc3c(F)cc(Br)cc3F)ncn2)ccc1CC(=O)O | EP4 (Homo sapiens) | not satisfied

(Q) Criterion: IC50 strictly below 100 nM. Is it met by `O=C(O)c1cccc2cc(-c3cc(NCCc4c(F)cc(Br)cc4F)ncn3)[nH]c12` ?
(A) satisfied

(Q) Now consider `CC(C)Cc1cc(-c2cc(NCCc3c(F)cc(Br)cc3F)ncn2)ccc1C(=O)O` and answer again.
(A) satisfied

(Q) Now consider `CCOc1cc(-c2cc(NCCc3ccccc3C)ncn2)sc1C(=O)O` and answer again.
(A) not satisfied

(Q) Now consider `CCOc1cc(-c2cc(NCCc3c(F)cc(Br)cc3F)ncn2)sc1CCC(=O)O` and answer again.
(A) satisfied

(Q) Now consider `O=c1[nH]c(-c2ccc(-c3cc(NCCc4c(F)cc(Br)cc4F)ncn3)cn2)no1` and answer again.
(A) not satisfied

(Q) Now consider `CCOc1cc(-c2cc(NCCc3ccc(Cl)cc3[N+](=O)[O-])ncn2)sc1C(=O)O` and answer again.
(A) satisfied

(Q) Now consider `CCOc1cc(-c2cc(NCCc3ccc(C(F)(F)F)cc3OC(F)F)ncn2)sc1C(=O)O` and answer again.
(A) satisfied

---

- measured_on: PTGER2 (EP2) (Homo sapiens)
- Sequence (P43116 whole entry): as the sequence (P43116 whole entry) above
pIC50: −log10 of the molar value.
Note to self: values exactly at 7 are true (1). So pIC50 at or above 7 is true (1), below is false (0).

(Q) Quick check, pIC50 >= 7? `Cc1cc(-c2cc(NCCc3c(F)cc(Br)cc3F)ncn2)sc1-c1noc(=O)[nH]1`
(A) true (1)

---

- measured_on: UniProt P35408
Let's look at some compounds and their measured IC50.
Express your answer in nM, writing the number without its unit.

(Q) Give recorded IC50 with UniProt P35408 for the following compound: `COc1cc(C(F)F)c(F)cc1CCNc1cc(-c2ccc(C(=O)O)c(SC)c2)ncn1`
(A) 216

(Q) Now consider `CCCc1cc(-c2cc(NCCc3c(F)cc(Br)cc3F)ncn2)ccc1C(N)=O` and answer again.
(A) 163

---

- measured_on: PTRGER4 (EP4) (Homo sapiens, UniProt P35408)
- experiment_summary: cell-based
Let's look at some compounds and their measured pIC50.
Hey, just a heads up that pIC50 is the negative log base 10 of the concentration in molar.

Use these answered entries as a reference point.
compound_smiles | measured_number
CCOc1cc(-c2cc(NCCc3ccc(Br)cc3N3CCCC3)ncn2)sc1-c1noc(=O)[nH]1 | 7.10
CCOc1cc(-c2cc(NCCc3c(F)cc(Br)cc3F)ncn2)sc1Cc1noc(=O)[nH]1 | 6.89
CCOc1cc(-c2cc(NCCc3cccc(C(=O)OC)c3)ncn2)sc1C(=O)O | 6.51

Let us move to another entry and its pIC50.
(Q) State the recorded pIC50 for this entry: `Cc1cc(-c2cc(NCCc3c(F)cc(Br)cc3F)ncn2)cc(C)c1CC(=O)O`
(A) 6.55

---

- measured_on: EP2 (Homo sapiens, UniProt P43116)
- experiment_summary: cell-based
In plain terms, low IC50, meaning strictly below 90 nM, gives YES, and everything else gives NO.

compound_smiles | group_label
CCCc1cc(-c2cc(NCCc3c(F)cc(Br)cc3F)ncn2)ccc1C(=O)O | YES
CCOc1cc(-c2cc(NCCc3c(F)cc(Br)cc3F)ncn2)sc1/C=C/C(=O)O | NO
CCOc1cc(-c2cc(NCCc3c(F)cc(Br)cc3F)ncn2)ccc1-c1noc(=O)[nH]1 | NO
CCOc1cc(-c2cc(NCCc3ccccc3Cl)ncn2)sc1C(=O)O | NO
CCOc1cc(-c2cc(NCCc3ccc(Br)c(F)c3)ncn2)sc1-c1noc(=O)[nH]1 | NO

Here's the next entry for you.
(Q) Criterion: IC50 strictly below 90 nM. Is it met by `COc1cc(SC)ccc1CCNc1cc(-c2ccc(C(=O)O)c(SC)c2)ncn1` ?
(A) YES

---

Let's go through some recorded IC50 values for EP2 (Homo sapiens, UniProt P43116) together.
Phrase the answer as number then unit, nothing more needed.

Use these answered entries as a reference point.
compound_smiles | IC50
CCCOc1cc(Br)ccc1CCNc1cc(-c2cc(OCC)c(-c3noc(=O)[nH]3)s2)ncn1 | 10 nM
CCOc1cc(-c2cc(NCCc3ccc(Cl)cc3NC)ncn2)sc1-c1noc(=O)[nH]1 | 2840 nM
CCOc1cc(-c2cc(NCCc3ccc(OC(F)(F)F)cc3OC)ncn2)sc1C(=O)O | 615 nM

(Q) State the recorded IC50 for this entry: `CCOc1cc(-c2cc(NCCc3ccc(Cl)cc3Cl)ncn2)sc1-c1noc(=O)[nH]1`
(A) 32 nM

(Q) Now consider `COc1cc(SC)ccc1CCNc1cc(-c2ccc(C(=O)O)c(OC3CCC3)c2)ncn1` and answer again.
(A) 340 nM

---

Let's look at some molecules and their measured pIC50.
- measured_on: EP4 (Homo sapiens)
Hey, just a heads up that pIC50 is the negative log base 10 of the concentration in molar.

Use these answered entries as a reference point.
compound_smiles | measured_attribute | measured_number
CCOc1cc(Br)ccc1CCNc1cc(-c2ccc(C(=O)O)c(OCC)c2)ncn1 | pIC50 | 6.16
CCOc1cc(-c2cc(NCCc3c(F)cccc3F)ncn2)sc1-c1noc(=O)[nH]1 | pIC50 | 7.41
COc1cc(C)c(C)cc1CCNc1cc(-c2ccc(C(=O)O)c(SC)c2)ncn1 | pIC50 | 7.34
CCOc1cc(-c2cc(NCCc3cc(Cl)ccc3C#N)ncn2)sc1-c1noc(=O)[nH]1 | pIC50 | 6.59
O=C(O)c1ccc(-c2cc(NCCc3c(F)cc(Br)cc3F)ncn2)s1 | pIC50 | 6.94

(Q) State the recorded pIC50 for this entry: `CCOc1cc(-c2cc(NCCc3cc(Br)ccc3OC)ncn2)sc1C(=O)O`
(A) 7.28

(Q) Now consider `CCOc1cc(-c2cc(NCCc3cccc(C(F)(F)F)c3)ncn2)sc1C(=O)O` and answer again.
(A) 6.79

(Q) Now consider `CCOc1cc(-c2cc(NCCc3ccc(Br)c(OC)c3)ncn2)sc1-c1noc(=O)[nH]1` and answer again.
(A) 7.92

(Q) Now consider `CCOc1cc(-c2cc(NCCc3ccc(Cl)c(Cl)c3C)ncn2)sc1C(=O)O` and answer again.
(A) 7.47

(Q) Now consider `CCOc1cc(-c2cc(NCCc3ccccc3)ncn2)sc1C(=O)O` and answer again.
(A) 6.04

(Q) Now consider `CCCCOc1cc(-c2cc(NCCc3c(F)cc(Br)cc3F)ncn2)ccc1C(=O)O` and answer again.
(A) 6.29

(Q) Now consider `CCOc1cc(-c2cc(NCCc3c(F)cc(Br)cc3F)ncn2)sc1-c1noc(=S)[nH]1` and answer again.
(A) 8.70

(Q) Now consider `CCOc1cc(-c2cc(NCCc3ccc(OC)cc3)ncn2)sc1C(=O)O` and answer again.
(A) 7.09

(Q) Now consider `Oc1cc(-c2ccc(-c3cc(NCCc4c(F)cc(Br)cc4F)ncn3)cc2)on1` and answer again.
(A) 6.83

(Q) Now consider `CCOc1cc(-c2cc(NCCc3ccc(C)c(C)c3)ncn2)sc1C(=O)O` and answer again.
(A) 7.60

(Q) Now consider `O=c1[nH]c(-c2ccc(-c3cc(NCCc4c(F)cc(Br)cc4F)ncn3)s2)no1` and answer again.
(A) 7.47

(Q) Now consider `CCOc1cc(-c2cc(NCCc3ccc(Br)cc3)ncn2)sc1-c1noc(OC)n1` and answer again.
(A) 6.66

(Q) Now consider `CCOc1c(C(=O)O)sc(-c2cc(NCCc3c(F)cc(Br)cc3F)ncn2)c1Cl` and answer again.
(A) 7.01
